- SYSTEM_UNDER_TEST: p38a (Homo sapiens)
- Construct: purchased Carna Biosciences
- Sequence (Q16539 whole entry): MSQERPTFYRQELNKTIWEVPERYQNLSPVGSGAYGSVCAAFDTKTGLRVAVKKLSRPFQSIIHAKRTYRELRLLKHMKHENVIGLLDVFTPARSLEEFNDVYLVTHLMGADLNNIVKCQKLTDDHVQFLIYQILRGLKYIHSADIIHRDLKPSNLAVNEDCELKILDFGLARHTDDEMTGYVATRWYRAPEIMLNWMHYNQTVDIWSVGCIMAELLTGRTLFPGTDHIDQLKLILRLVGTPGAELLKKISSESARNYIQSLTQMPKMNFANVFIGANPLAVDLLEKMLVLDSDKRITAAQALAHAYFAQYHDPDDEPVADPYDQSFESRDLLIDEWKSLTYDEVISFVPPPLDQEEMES
- ASSAY_OVERVIEW: LabChip (Caliper) kinase assay, p38a
- Format: biochemical
- MEASUREMENT_PARAMETERS: compound at 10 nM, read-out: remaining kinase activity (in %) / percentage of inhibition

{"MOLECULE": "C[C@@H]1O[C@@H](n2c3ccccc3c3c4c(c5c6ccccc6[nH]c5c32)CNC4=O)C[C@@H](O)[C@H]1O [formula (XIV), N^13-1′-β-L-digitoxosyl-k252c]", "inhibition at 0.01 µM, %": -1}
{"MOLECULE": "C[C@@H]1O[C@@H](n2c3ccccc3c3c4c(c5c6ccccc6[nH]c5c32)CNC4=O)[C@H](O)[C@H](O)[C@H]1O [formula (XII), N^13-1′-β-L-rhamnosyl-k252c]", "inhibition at 0.01 µM, %": -1}
{"MOLECULE": "C[C@H]1O[C@@H](n2c3ccccc3c3c4c(c5c6ccccc6[nH]c5c32)CNC4=O)C[C@@H](O)[C@@H]1O [formula (XV), N^13-1′-β-D-olivosyl-k252c]", "inhibition at 0.01 µM, %": -1}
{"MOLECULE": "C[C@@H]1O[C@@H](n2c3ccccc3c3c4c(c5c6ccccc6[nH]c5c32)CNC4=O)C[C@H](O)[C@H]1O [formula (XIII), N^13-1′-β-L-olivosyl-k252c]", "inhibition at 0.01 µM, %": -2}
{"MOLECULE": "C[C@@H]1O[C@@H](n2c3ccccc3c3c4c(c5c6ccccc6[nH]c5c32)C(=O)NC4=O)C[C@H](O)[C@H]1O", "inhibition at 0.01 µM, %": -2}
